Data origin, for the record: patent US8329904B2

// IC50 lookup, one value per entry
Target: human HSL (Homo sapiens)
Construct: overlapping PCR to generate a full length human HSL ORF with a 3′-His6 tag; His6 (C)
Sequence (Q05469 whole entry): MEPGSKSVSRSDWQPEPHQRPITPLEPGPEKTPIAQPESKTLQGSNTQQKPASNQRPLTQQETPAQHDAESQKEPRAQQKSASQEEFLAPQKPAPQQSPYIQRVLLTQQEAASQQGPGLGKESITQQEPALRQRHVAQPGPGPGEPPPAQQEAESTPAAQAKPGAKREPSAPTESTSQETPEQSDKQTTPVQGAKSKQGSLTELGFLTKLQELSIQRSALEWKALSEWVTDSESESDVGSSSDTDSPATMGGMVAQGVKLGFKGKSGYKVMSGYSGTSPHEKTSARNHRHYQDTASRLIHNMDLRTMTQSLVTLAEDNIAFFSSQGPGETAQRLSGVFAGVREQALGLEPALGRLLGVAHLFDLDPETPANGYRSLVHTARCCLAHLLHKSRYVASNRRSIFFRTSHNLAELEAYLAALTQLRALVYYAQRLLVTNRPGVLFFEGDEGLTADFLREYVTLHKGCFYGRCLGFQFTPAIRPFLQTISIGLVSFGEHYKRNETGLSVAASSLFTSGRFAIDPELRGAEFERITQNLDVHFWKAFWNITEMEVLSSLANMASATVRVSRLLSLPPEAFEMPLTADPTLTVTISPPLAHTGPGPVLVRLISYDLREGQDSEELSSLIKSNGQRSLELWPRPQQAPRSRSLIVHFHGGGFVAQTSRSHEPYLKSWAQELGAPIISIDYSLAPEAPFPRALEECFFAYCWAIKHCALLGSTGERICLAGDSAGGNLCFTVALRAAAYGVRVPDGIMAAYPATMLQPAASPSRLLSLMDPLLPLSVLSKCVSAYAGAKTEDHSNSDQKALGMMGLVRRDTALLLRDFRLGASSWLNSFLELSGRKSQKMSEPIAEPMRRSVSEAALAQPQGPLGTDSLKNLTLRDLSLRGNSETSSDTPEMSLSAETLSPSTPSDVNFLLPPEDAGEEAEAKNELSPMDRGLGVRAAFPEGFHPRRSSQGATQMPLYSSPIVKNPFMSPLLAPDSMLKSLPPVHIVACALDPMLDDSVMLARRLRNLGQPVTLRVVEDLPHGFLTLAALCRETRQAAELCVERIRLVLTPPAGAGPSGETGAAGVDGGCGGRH
Experiment: Human Hormone-Sensitive Lipase (HSL) Enzyme Inhibition Assay
Settings: colorimetric assay, 2,3-dimercapto-1-propanol tributyrate (DMPT) substrate, 37° C. for 20 minutes, absorbance at 405 nm; read-out: HSL hum IC50
Respond numerically; units are nM and should not be typed.

See these solved cases before continuing.
MOLECULE	IC50 / nM
O=C1N(CCc2cccc(Cl)c2)CCC12CCN(S(=O)(=O)c1ccccc1Cl)CC2 [Example 247]	80
CC(Oc1ccc(N2CCC3(CCN(C(=O)CC(C)(C)C)CC3)C2=O)cc1)C(F)(F)F (stereo not shown) [Example 123]	250
COCC(C)(C)c1ccc(N2CCC3(CCN(S(=O)(=O)CC(C)C)CC3)C2=O)cc1 [Example 108]	100
CCc1ccc(N2CCC3(CCN(C(=O)N4CCCCC4)CC3)C2=O)cc1 [Example 255]	180

Query block: What measured IC50 goes with O=C1N(c2ccc(OC(F)(F)F)cc2)CCC12CCN(S(=O)(=O)c1cccnc1O)CC2 [Example 196] ?
Result block: 230
